test system: SN12C renal; experiment: NCI-60 one-dose screen, 48 h; conditions: 10 µM
This is part of a sample that, as a whole, favours compounds with a hit. Of some 83,000 tested, about 20% had one in any assay. The source made the active and inactive calls. How the source made its calls: active means growth percent below 10; inactive means the rest.
Your answer must be one of the following: Y = active, N = inactive

Worked cases, answers included:
molecule	group
COc1cc(-c2n/c(=C\c3c(O)[nH]c4ccccc34)cc3c2=Nc2ccccc2-3)cc(OC)c1OC	N
O=C(OCC1OC(n2cc(C(F)(F)F)c(=O)[nH]c2=O)CC1OC(=O)c1ccc([N+](=O)[O-])cc1)c1ccc([N+](=O)[O-])cc1 (stereo not given)	N
CCCCCCCCCCCCCCCCn1cc[n+](C)c1	Y
Clc1cc(Cl)c(Cl)c(-c2nc(-c3cccnc3)cs2)c1	N
Cc1cc(C#Cc2ccccc2)ccc1-n1c(/C=C/c2cc(O)ccc2O)nc2ccccc2c1=O	Y

Task: Which outcome did this test record for the molecule "O=CNc1c(Cl)cc2c(c1Cl)Cc1cc([N+](=O)[O-])ccc1-2" ?
Output: N

Task: Outcome? "COc1cc(Cn2c(-c3ccccc3)cc3c2-c2oncc2CC3)cc(OC)c1"
Output: N

Task: Hi team, can someone confirm the assay call for "COc1ccc(CCc2nc3cc(-c4c(C)noc4C)ccc3n2CCN2CCOCC2)cc1" ?
Output: N

Task: Please indicate how the test categorized COc1cccc2c1C(=O)c1c(O)c3c(c(O)c1C2=O)C[C@@](O)(C(=O)COC(=O)c1cccnc1)C[C@@H]3OC1CC(N)C(O)C(C)O1 (stereo not given in full) .
Output: Y

Task: Identify the outcome logged in this assay for the molecule shown: "O=C(COc1ccc(-c2nc3ccccc3[nH]2)cc1)N=Nc1c(O)[nH]c2ccccc12"
Output: N

* * *

system: NCI-H23 lung; assay: NCI-60 one-dose screen, 48 h (100 = growth as untreated, 0 = no growth, -100 = all killed); conditions: 10 µM
The panel holds about 83,000 compounds, 20% with a hit somewhere; the sample as a whole holds those more often.
Classify as follows. Reported growth greater than or equal to 90%: MET. Reported growth below: NOT MET.

Please review the entries below; each comes with its answer.
compound	group
CCc1ccc(-c2nnc(COc3ccc(-c4nc5ccc(C)cc5[nH]4)cc3OC)o2)cc1	NOT MET
C/C=C\COc1cc(C)c(Cl)cc1Cl	MET
CCCCCCCCCCCCCC[n+]1ccccc1	NOT MET

Task: Decide: is the reported value of growth for "Cc1cn(C(=O)/C(Cl)=C(/Cl)C(=O)O)c2ccccc12" equal to or greater than 90%?
Output: MET

Task: Please tell me: is the compound COc1ccc(C(C)=O)cc1N1C(=O)C2C(C1=O)C1(c3ccccc3)C(=O)C2(c2ccccc2)C(c2ccc(C)cc2)=C1c1ccc(C)cc1 (configuration not stated) at or over 90% in terms of growth?
Output: NOT MET

Task: Decide: growth of "O=C(NC1CCCC1)c1ccc(N2CCC(NCc3cccc(C(F)(F)F)c3)CC2)cc1" >= 90%?
Output: MET

Task: API: above_or_equal(metric=growth, cutoff=90%) for item "Cc1c(C(=O)N[C@H](CO)Cc2ccccc2)[nH]c2ccc(Cl)cc2c1=O"
Output: MET

Task: Dear colleague, could you confirm whether CC(=O)Oc1ccc(C2=Cc3ccc(OC(C)=O)cc3OC2C)cc1 (configuration not stated) has growth at or above 90%?
Output: NOT MET

* * *

Listed here: items and their measured growth.
test system: RXF 393 renal; experiment: NCI-60 one-dose screen, 48 h (100 = growth as untreated, 0 = no growth, -100 = all killed); details: 10 µM
The panel holds about 83,000 compounds, 20% with a hit somewhere; the sample as a whole holds those more often.
Report the value in % with no unit label.

Please review the entries below; each comes with its answer.
molecule	readout	measurement
CCCCOCCOCCOCc1cc2c(cc1Br)OCO2	growth	108
COc1ccc(-n2nnc3c(sc4ccccc43)c2=O)cc1	growth	45
Cc1cnc(C=O)c2cccc([N+](=O)[O-])c12	growth	93.1

Proceeding to the next molecule to report its growth.
Task: What measured growth is associated with Nc1ccc(C2=CC(c3ccc(Cl)cc3)N3C=CSC3=N2)cc1 (stereo unspecified) on RXF 393 renal?
Output: -93.1

* * *

We begin with a simple list: items and their reported growth.
system: KM12 colon; assay: NCI-60 one-dose screen, 48 h (100 = growth as untreated, 0 = no growth, -100 = all killed); details: 10 µM
About 83,000 compounds went through this panel and 20% of them were active in at least one assay; those are over-represented in the sample as a whole.
The response must be a number in % with no trailing unit.

compound	growth [%]
CC1(C)CCc2cc(-c3ccn(S(=O)(=O)c4ccc(Cl)cc4)n3)ccc2O1	77
COc1ccc(-c2nnc(COc3ccc(NC(=O)Nc4cccc(C(F)(F)F)c4)cc3F)o2)cc1	24
O=C(CCCC(=O)N/N=C/c1cc(Cl)ccc1O)N/N=C\c1cc(Cl)ccc1O	27.8
CCCc1c(C)nc2scc(-c3ccc(Cl)cc3)n2c1=O	98.2
c1ccc(CC(NCCNC(Cc2ccccc2)c2ccccc2)c2ccccc2)cc1 (stereo not given)	16.3

Task: Look at this compound and give its reported growth. "O=[N+]([O-])c1ccc(S(=O)(=O)OCCCCOS(=O)(=O)c2ccc([N+](=O)[O-])cc2)cc1"
Output: 107

Task: Value lookup for growth; key = "O=C(NC1CCN(Cc2ccccc2)CC1)c1cc(-c2ccncc2)nc2ccc(Cl)cc12"
Output: 26.1

Task: # get_value(readout='growth', item= O/N=C1\CCC2CCCCC2C1 (stereo not given) )
Output: 106

Task: // lookup growth for "O=C(C=P(c1ccccc1)(c1ccccc1)c1ccccc1)c1ccc(Br)cc1"
Output: 83.4

Task: Recorded growth for "COc1ccc2nc(/C=C/c3ccc(N(C)C)cc3)sc2c1" , please?
Output: 104

* * *

system: IGROV1 ovarian; assay: NCI-60 one-dose screen, 48 h (100 = growth as untreated, 0 = no growth, -100 = all killed); conditions: 10 µM
The panel holds about 83,000 compounds, 20% with a hit somewhere; the sample as a whole holds those more often.
Label class 1 when growth >= 80%; otherwise class 0.

Example entries and their recorded answers appear below.
compound	group
COc1cc(-c2n/c(=C\c3c(O)[nH]c4ccccc34)cc3c2=Nc2ccccc2-3)cc(OC)c1OC	class 0
COC(=O)c1cnc2c(c1)Oc1ccccc1-c1ccnn1-2	class 1
N#CC1C=Cc2c(ccc3ccccc23)N1C(=O)c1ccccc1 (stereo unspecified)	class 0
COc1ccc(C2CC(c3ccc(-c4ccccc4)cc3)=NN2c2ccc(S(N)(=O)=O)cc2)cc1 (stereo unspecified)	class 0
Oc1ccccc1-c1nnc(Cn2c(Cc3cccc4ccccc34)nc3ccccc32)o1	class 1

Task: Can "CCCCNC(=O)Oc1ccc(/C(=C(\C)c2ccc(OC)cc2)c2ccc(OCCN3CCCCC3)cc2)cc1" be said to have growth at or above 80%?
Output: class 0

Task: growth >= 80% for "COc1ccc(Nc2nc(NCc3ccccc3)c3ccccc3n2)cc1" ?
Output: class 0

Task: I'd appreciate it if you could say whether "O=C(Nc1cccc(C(F)(F)F)c1)C(Cl)Cl" has growth at least equal to 80%.
Output: class 1

Task: Does "COc1cc(Cn2c(-c3ccccc3)c(Cl)c3c2-c2oncc2CC3)cc(OC)c1" have a reported growth of at least 80%?
Output: class 0

Task: Is growth at least 80%? Consider "C(=C\c1nc2ccccc2s1)/c1ccc(N2CCOCC2)s1"
Output: class 1

* * *

test system: U251 CNS; test: NCI-60 one-dose screen, 48 h (100 = growth as untreated, 0 = no growth, -100 = all killed); conditions: 10 µM
This is part of a sample that, as a whole, favours compounds with a hit. Of some 83,000 tested, about 20% had one in any assay.
growth listing for selected compounds.
Just the number in %, nothing appended.

Check out these entries, answers already filled in.
compound	tgt	unit_string	measurement
COc1cc(C(=O)n2nc(N)c3c(C)cc(C)nc32)cc(OC)c1OC	U251 CNS	%	72.1
COc1ccc(NC(=O)c2sc3nc4c(cc3c2N)C(O)CCC4)cc1 (stereo unspecified)	U251 CNS	%	105
CN(C)c1ccc2c(c1)OC(N)=C(C#N)C2c1ccc2c(c1)CCO2 (stereo unspecified)	U251 CNS	%	21.7
CCOC(=O)c1sc(Nc2ncccn2)nc1-c1ccccn1	U251 CNS	%	73.2
CCCCCCOc1ccc(/C=C/C(=O)c2ccc(B(O)O)cc2)cc1	U251 CNS	%	77.5

Task: Need growth of "COc1cc2ccnc(C=O)c2cc1OC" , thanks.
Output: 91

Task: Given the entry "COc1ccc(CCc2nc3cc(-c4c(C)noc4C)ccc3n2CCN2CCOCC2)cc1" , report its measured growth.
Output: 17

Task: Query (compound): "CCCCCCCCCCCCCC[n+]1ccccc1" ; field requested: growth
Output: -88.3

Task: Given the compound "O=C1NN(c2ccccc2)C(c2cccnc2)=N/C1=C\c1cccnc1" , what is its reported growth?
Output: 102

Task: Please look up its growth: "O=C(NC1CCN(Cc2ccccc2)CC1)c1cc(-c2ccncc2)nc2ccc(Cl)cc12"
Output: 7.4

Task: Can you look up the measured growth of "Cc1cc(C)c(/C=C2\C(=O)Nc3ccc(NC(=O)CCCCCCC(=O)NO)cc32)[nH]1" for me?
Output: 4

Task: Given the entry "CCOC(=O)c1ccc(N(C=O)CCC(=O)CCl)cc1" , report its measured growth.
Output: 4.55

Task: Can you share its growth? I mean this compound: "CCOC(=O)c1c(C(F)(F)F)n([O-])c2ccc(OC)cc2[n+]1=O"
Output: 26.6

Task: For the compound shown here, CCCCCC(=O)N1c2ccccc2NC2=C(C(=O)CC(c3ccc(OC)c(OC)c3)C2)C1c1ccc(C(F)(F)F)cc1 (stereo unspecified) , give the reported growth.
Output: 49.5

Task: Could you share which growth value was measured for "COc1ccc(-c2nnc(COc3ccc(NC(=O)Nc4ccccc4)cc3F)o2)cc1" ?
Output: 85

Task: Using the record for "CCOC(=S)Sc1ccc([N+](=O)[O-])cc1[N+](=O)[O-]" , report its growth.
Output: 90.4

Task: Reported growth, compound "CCCCCCCCCCCCCC[n+]1ccc(C)cc1" : ____
Output: -78.5

Task: # query: growth of entry "O=C(CCc1ccccc1)N1CCN(C(=O)CCc2ccccc2)CC1"
Output: 104

Task: State the recorded growth for this entry: "CN1CCN(c2nc(-c3cccnc3)nc3sc4c(c23)CCCCCC4)CC1"
Output: 72.3

Task: What measured growth goes with "O=C1/C(=C/c2ccc(O)cc2)Oc2ccc(Cl)cc21" ?
Output: 89.9

Task: # lookup: growth of "COc1ccccc1Cn1cc2c(c1-c1ccccc1)CCc1cnoc1-2"
Output: 39.7
